Every entry's value here was drawn from the domain aggregation screens of Martell et al. (2025).

# measurement.protocol: soluble fraction after stress (log2 fold change); higher = more stays soluble; pooled small domains, quantitative proteomics
# condition.context: stress: 50 degC
Returns Yes if the recorded soluble fraction (log2) is greater than or equal to -1, and No otherwise.

Worked set:
HMSTVISPLPGNIIKVLVPEGKSVKRGDTILTIESMKMENSIKAAYDGVVKKIYVQQAQIVMQGDPLFDL | No
HMVVLNQEQIKFIDHYLQVSKVRYVDVRSELTDHIATAVELKMQDEALDFYEAFKAFIAVNKSQLLQRN | No
HMTRQKEAILALLTDSRGEALSASELLARLTRSGSSIGRTTVYRLLSQLVDDGVVRAWRDASRGITLYELS | Yes

As a next step, examine the sequence that follows.
Hi, just wondering whether `HMADASVTAYFKIAEDRLQGRLPDTFSEASLKARYQLTPAQLTAVLTRIAQEGWAERKPGYGWAFSSML` shows soluble fraction (log2) of -1 or higher.
No

###

# measurement.protocol: soluble fraction after stress (log2 fold change); higher = more stays soluble; pooled small domains, quantitative proteomics
# condition.context: stress: 50 degC
property: soluble fraction (log2)
Numbers only.

See these solved cases before continuing.
HMVPADVQHLRDIVDTMTEKQQLVYKLHVLEGYTFTEIAKLMGTSIPNVKKHYDKAILFIKNNF | -0.909
HMKDYKSSLQERVQAVGGGQLIYRVNREEGPDHSKTFYMDLFLGDRLIGTGSGRNKKQAEQQAAKEAIERG | 0.0941
HMGMGIGQIIKEKRTALKMTQNELAERLGVSQQSVTGWENNAAVPRESAVRGMMDIFGLSRNELFGEP | 0.331
HMNENFPYRLKEMVVVQSRTWPGINKPGGVGQVMKINPEAGTVNVKYVLGGSEKNIELKYVTSNDLNSK | -0.536
HMYRLDVEISDEIKRDIDEETLSEIKGIIAEDPRPSYQNDETRIYRFTFAGREISFRVKDRTATVTEIL | -0.0821

For each entry beneath this line, provide reported soluble fraction (log2).
1. HMIFELDSDRASAGNTIGKLVSKWNNTEVASVQFVSGDDTSNKDNASIYLNTRSGGSGNLVRLRITK
2. HMEQSLNTYSIRTVKESLFLAETKNLNKIEKLVEGIEGRLTLSEALVLFSDKLNAMSVLSHVNANT
3. HMVPEEEATKISVQNVGASDYNFTVKGVQANDPTLTLVRGKTYEFDVTSLGHPFWIKTQKVTGSSSQY
4. HMTVGEAHLEEVYLKVLKQVEEQGTALIRTTDVETGRPAAGIRRRYMRGTLPDEWVAKFEALPGWTWAPG

1: 0.168; 2: -0.148; 3: 0.1; 4: -0.879

###

For each record, write down the corresponding soluble fraction (log2).
# measurement.protocol: soluble fraction after stress (log2 fold change); higher = more stays soluble; pooled small domains, quantitative proteomics
# condition.context: stress: 50 degC

See these solved cases before continuing.
HMKFNLWLSEKLKKLGLTQRKLAEQAGVSPATVSRWLSGEFEPDLTNLRKINQVLGVPERELFLQLGL | 0.154
HMALPGESVYVSILQSGSNRDQGVGYLDDGTMVVVDGAIKDIGKSIEVVINKSHQTVAGKMLFAKKVA | -0.0558
HMNQASLTYSEFIANVESKAITRVTISGDTISGILADGKPFQTIYPMADLELLPILRRSGVDINVKEVQ | -0.117
HMIPNEKEAARWDALTAEHTAKLNALEGDALDKVGSHEDVSIKRAGVGDAAFREKILSRTHPDDLERALST | 0.0829

# ---- query sequence ----
May I ask what soluble fraction (log2) has been recorded for `HMFMNFAEHLMALRKQRGWSQEELGSQIGVTRQTVSKWEMGQSTPELEKLVELSRLFGMSIDQLVGL` ?
0.0203

###

# measurement.protocol: soluble fraction after stress (log2 fold change); higher = more stays soluble; pooled small domains, quantitative proteomics
# condition.context: stress: 50 degC
property: soluble fraction (log2)
Numbers only.

HMIYYTEEELVKRYIDFSNYLGKKEGASDVDFKKYAVEFGIPSRDHYNRKFITLFNLKIKAGYKPIRH | -0.763
HMGLYPYSGTPADNQEANERRIFDIYSTHLERIFSDFSGATLRTKRLVLRLMQELVHSDPVRMAGILDEL | 0.00204

For each entry beneath this line, provide reported soluble fraction (log2).
1. HMSVIETLLSDREREVLTHLVNGYDAKRIAEITGISTLTVRKHIANIYTKLHVNSKAQVISMAHKNKWF
2. HMSANVSMEEALRRTSQAHSLAGKWMRRVLQMAQGRDLIEQMQREAQEAHLPELIGMSVQLEFIRRG
3. HMIPEILNGYTKWGDDEPFEDHAGPFYMKMMPSTGRHLSAFIPEQRHMNGGGFLHGGMLMSFADYALFVI
4. HMTDFDWSLFTQQLKRFNLFLSYDDREKLQTFQTLYGLNELDLAEYVAKASAGEKNGLNFNYLRQLINKEK

1. -0.657
2. -0.11
3. 0.00747
4. -0.465

###

# measurement.protocol: soluble fraction after stress (log2 fold change); higher = more stays soluble; pooled small domains, quantitative proteomics
# condition.context: stress: 50 degC
For each record, write down the corresponding soluble fraction (log2).
Numbers only.

See these solved cases before continuing.
HMLTLSGPEHAVVRALWPEPELDFDVLIRKTGLPSAQLMTLAMQLEMKKIIRRLPGRRLALMDDIRR | -1.85
HMHNPSYDMSKDVDILVMKFRDYNNLTDDEARFLLDKAKDAYYNTGKEILSDNEYDTLEKSLGQE | 0.178
HMNPDDEMLLTYLTKLLVDKQFIVNSNDIFEYILRRVDRTYDGIYDIVSKLDVLSLEKKRQLTIPLIKEI | 0.0226
HMAESTRSRILNAAIEMMETGGESSVRLSAIAEALGIKEPSIYHHFTNRTELVNAAYIEWYW | -0.0152
HMALTLDEARTQGRVGETFYGYLVALKTDAETEKLVNDINAERKASYQQLAKQNNVSVDDIAKLAGQKLV | 0.0405
HMDFIEYIISEESKGLRADQAISMENDKFSRSLIQKWIKKGRVLVNGRKIKPKDIVNLNDKITINPEESIN | -0.143

For each entry beneath this line, provide reported soluble fraction (log2).
1. HMLIRKGVVSFFNDAKGYGFIKDLVTQESAFVHVNSLSETIKEHDKVTFEVEMGHKGANAVNVKLVK
2. HMQFQVHEIKGKEYYIHVVEKGNTLYAISRMYSVPIETLKEENPRLNTTELTIGDRLLIPLDEVKRKNIE
3. HMKRQATLQIGSKRFGMDDLYFKFTVPFEDSEKLGTATIEAYNLSPATRNSIKKGMPIILNAGYEGDI
4. HMKKITTANPLDINRATLAQLDTLPGIGPVTAERIIAYRSKVGRINSLDELKKISGLGGMKFEEIKPLLRV
5. HMSSTAIQAMIRRLIDGEDPRKPLSDARLAETLKASGVPVARRTVAKYRESMSIPSSQDRLRI
6. HMDGLPYPEAAEEPIAQVARNLGMDATRVSIALQEAKLIFRNLDETLAEIAANNGTTPQVVYDAIRHLEPP
7. HMILEEIIGKNIARYREAAGLTQATLAEKIGISTAFVSRVERGQKKMKVETLYATAKVLNVSVDALLS
8. HMEKSLSAQVYEKIKAGIISLKYPPGSVLKERELSESLGVSRTPVREAIQRLSQESWLVPGEGKRMQVRP

-1.03
-0.128
-0.225
0.042
-0.156
-0.095
-2.1
0.134

###

For each record, write down the corresponding soluble fraction (log2).
# measurement.protocol: soluble fraction after stress (log2 fold change); higher = more stays soluble; pooled small domains, quantitative proteomics
# condition.context: stress: 50 degC

See these solved cases before continuing.
HMRRVRRTRRLLQDGLLGLMQHKAVADISVKELAEAADVARATVYVHFKDPADVLHQLEQGLY | -0.0324
HMDRGDVTREALIKAAIEIFGRDGFHAASTRAIAERAGANQALIGYHFRGKLGLYHATFEYIIGKI | -0.315

# ---- query sequence ----
May I ask what soluble fraction (log2) has been recorded for `HMLYKNIAKKLRFRINSDEFAIGDVLPTERQLMEEYQASRVSIRKAIDELVAIDLIEKKQGSGTYIKQKEV` ?
-0.919

###

For each record, write down the corresponding soluble fraction (log2).
# measurement.protocol: soluble fraction after stress (log2 fold change); higher = more stays soluble; pooled small domains, quantitative proteomics
# condition.context: stress: 50 degC
Numbers only.

See these solved cases before continuing.
HMQNNITISKEIELRTGPDDTYPTLKKVTAGDNVEMLSKSDTWYEIKTNDSFVGWVPGWSIL | 0.0818
HMPLDYNELRSISPKAARQAILQILAANKGNVSATAKLLGVSRKTVYKAMHKKASGNLDDTSRAPK | -0.851
HMTGDNQTIGGGGFHHVAIRAHDFDASVKFYGETLGFREKIAWGEGDKRAIMMDTGDGNYIEIF | 0.197
HMPAAPVFLQKDLLDAGLIGQADSAARREKLGKILGIGYGNGKVMLQRLNSFGIERDAFEQAVQE | 0.0718
HMDVQPTTTKTMFYTVQQGETLFSISRKFGISVEEITKKNPLASSGLTVGMELLLPEKKEINSTIQS | 0.265

For each entry beneath this line, provide reported soluble fraction (log2).
1. HMDPIATLTPREREVLSLMAEGRSNGAIAAALVVGDGAVEKHVSNIFQKLELTPAEGDHRRVLAVLRWLE
2. HMEYELYALKEEVLKRLTREDRELLILLFEERRTIHAVAQRLGLSDSAVYKRRTQLVNKVKVIASMLM
3. HMTLVSALDQKTKDSAYYRGTYLAGKISAGKMTKQEAVADIMKNYDGNTAAMKVAAEKAGVSDLLSQTVL
4. HMYPEDMMSLMRRALRLINHLESNRKDRHNSRQLELTESKIRRLARYYKGRGLIETEWAYKRDQLRLLV
5. HMKTILEKDQRLAKYISYLIKRKRLSPEQVIEHLKTDDHGYEKYPKSINTIYAAIDKGLIPSVTRQDM
6. HMSVDDVALRLEFGPSDAEALAFVHRHGAILSETTDRDTGVVSVHVRLSEADAGRFNQRYGV

1: -0.901; 2: -2.13; 3: 0.234; 4: -0.398; 5: -0.0163; 6: -0.183
